The reported measurements were obtained from patent US20220220215A1.

# measured target: T1, human CD137 expressed on CHO cells (human, UniProt Q07011 18-255)
# T1 construct: also called CHO huCD137; CHO human CD137 cells
# procedure summary: FMAT/Mirrorball on CHO huCD137 cells
For each of the binders below, state its EC50.
Just the number plus its unit, please.

// recorded EC50 for 003BB172-E01-8 (VHH, Human VH single domain antibody, monovalent) VHH: EVQLVESGGGVVQPGGSLRLSCAASGFTFSNYGMHWVRQAPGKGLEWVAVISNDGNTKTYADSVKGRFTISRDNSKNTLYLQMNSLRTEDTAVYYCAQDETTTVTASYYFDYWGQGTLVTVSS : 1.08 nM

// recorded EC50 for 003BB172-E01-1 (VHH, Human VH single domain antibody, monovalent) VHH: EVQLVESGGGLVQPGGSLRLSCAASGFTFSNYGMHWVRQAPGKGLEWVAVISNDGNTKTYADSVKGRFTISRDNSKNMLYLQMTSLRTEDTAVYYCAQDETTTVTASYYFDYWGQGTLVTVSS : 1.35 nM
